System: NCI-H23
TEST_PROTOCOL: relative viability (nuclei count vs DMSO), 5 days (fraction); higher = more cells survive
ASSAY_SETUP: first compound 0.1265 µM
MEASUREMENT_KIND: relative viability

- Cc1sc2c(c1C)C(c1ccc(Cl)cc1)=N[C@@H](CC(=O)OC(C)(C)C)c1nnc(C)n1-2 [JQ1] + CC(=O)c1c(C)c2cnc(Nc3ccc(N4CCNCC4)cn3)nc2n(C2CCCC2)c1=O [Palbociclib] (partner 0.5 µM): 0.48
- Cc1sc2c(c1C)C(c1ccc(Cl)cc1)=N[C@@H](CC(=O)OC(C)(C)C)c1nnc(C)n1-2 [JQ1] + Nc1ncn([C@H]2C[C@H](O)[C@@H](CO)O2)c(=O)n1 [Decitabine] (partner 2 µM): 0.3
- Cc1sc2c(c1C)C(c1ccc(Cl)cc1)=N[C@@H](CC(=O)OC(C)(C)C)c1nnc(C)n1-2 [JQ1] + NC(=O)Nc1cc(-c2cccc(F)c2)sc1C(=O)N[C@H]1CCCNC1 [AZD7762] (partner 0.2 µM): 0.21
- Cc1sc2c(c1C)C(c1ccc(Cl)cc1)=N[C@@H](CC(=O)OC(C)(C)C)c1nnc(C)n1-2 [JQ1] + Cc1nc(Nc2ncc(C(=O)Nc3c(C)cccc3Cl)s2)cc(N2CCN(CCO)CC2)n1 [Dasatinib] (partner 0.075 µM): 0.656

----------
relative viability values, listed per item
System: NCI-H727
TEST_PROTOCOL: relative viability (nuclei count vs DMSO), 5 days (fraction); higher = more cells survive
ASSAY_SETUP: first compound 0.08 µM
MEASUREMENT_KIND: relative viability

* Cc1cnc(-c2cnc(NCCNc3ccc(C#N)cn3)nc2-c2ccc(Cl)cc2Cl)[nH]1 + Cc1nc(Nc2ncc(C(=O)Nc3c(C)cccc3Cl)s2)cc(N2CCN(CCO)CC2)n1 [Dasatinib] (partner 0.075 µM) | 0.452
* O=c1[nH]c2ccccc2n1C1CCN(CCCC(c2ccc(F)cc2)c2ccc(F)cc2)CC1 [Pimozide] + O=C(c1cc(Cc2n[nH]c(=O)c3ccccc23)ccc1F)N1CCN(C(=O)C2CC2)CC1 [Olaparib] (partner 8 µM) | 0.731
* Cc1cnc(-c2cnc(NCCNc3ccc(C#N)cn3)nc2-c2ccc(Cl)cc2Cl)[nH]1 + Cc1cc(Nc2cc(N3CCN(C)CC3)nc(Sc3ccc(NC(=O)C4CC4)cc3)n2)n[nH]1 [Tozasertib] (partner 0.1 µM) | 0.639

----------
relative viability values, listed per item
Tested on: EKVX
TEST_PROTOCOL: relative viability (nuclei count vs DMSO), 5 days (fraction); higher = more cells survive
ASSAY_SETUP: first compound 0.005 µM
MEASUREMENT_KIND: relative viability

- Nc1ccn([C@@H]2O[C@H](CO)[C@@H](O)[C@@H]2O)c(=O)n1 [Cytarabine] + O=C(CCCCCCC(=O)Nc1ccccc1)NO [Vorinostat] (partner 1 µM): 0.706
- COc1cc2nccc(Oc3ccc(NC(=O)Nc4cc(C)on4)c(Cl)c3)c2cc1OC [Tivozanib] + C[C@@H](Oc1cc(-c2cnn(C3CCNCC3)c2)cnc1N)c1c(Cl)ccc(F)c1Cl [Crizotinib] (partner 1 µM): 0.995
- COc1cc2nccc(Oc3ccc(NC(=O)Nc4cc(C)on4)c(Cl)c3)c2cc1OC [Tivozanib] + N=C(N)NC(=N)NCCc1ccccc1 [Phenformin] (partner 250 µM): 0.214

----------
Test system: NCI-H1792
TEST_PROTOCOL: relative viability (nuclei count vs DMSO), 5 days (fraction); higher = more cells survive
ASSAY_SETUP: first compound 158.11 µM
Label key: class 1 means relative viability under 0.4; class 0 means relative viability of 0.4 or more.

• O=C(O)CCCCC(CCSCc1ccccc1)SCc1ccccc1 (stereo not given) [CPI-613] + CC(C)C[C@H](NC(=O)[C@H](Cc1ccccc1)NC(=O)c1cnccn1)B(O)O [Bortezomib] (partner 0.002 µM) = class 0
• O=C(O)CCCCC(CCSCc1ccccc1)SCc1ccccc1 (stereo not given) [CPI-613] + O=C(c1cc(Cc2n[nH]c(=O)c3ccccc23)ccc1F)N1CCN(C(=O)C2CC2)CC1 [Olaparib] (partner 8 µM) = class 1
• O=C(O)CCCCC(CCSCc1ccccc1)SCc1ccccc1 (stereo not given) [CPI-613] + Nc1ncn([C@H]2C[C@H](O)[C@@H](CO)O2)c(=O)n1 [Decitabine] (partner 2 µM) = class 1
• O=C(O)CCCCC(CCSCc1ccccc1)SCc1ccccc1 (stereo not given) [CPI-613] + Cc1nc(NC(=O)N2CCC[C@H]2C(N)=O)sc1-c1ccnc(C(C)(C)C(F)(F)F)c1 [Alpelisib] (partner 2 µM) = class 0

----------
relative viability values, listed per item
System: NCI-H1944
TEST_PROTOCOL: relative viability (nuclei count vs DMSO), 5 days (fraction); higher = more cells survive
ASSAY_SETUP: first compound 158.11 µM
MEASUREMENT_KIND: relative viability

• O=C(O)CCCCC(CCSCc1ccccc1)SCc1ccccc1 (centres undefined) [CPI-613] + CCNC(=O)c1noc(-c2cc(C(C)C)c(O)cc2O)c1-c1ccc(CN2CCOCC2)cc1 [Luminespib] (partner 0.01 µM) = 0.409
• O=C(O)CCCCC(CCSCc1ccccc1)SCc1ccccc1 (centres undefined) [CPI-613] + CC1(C)CCC(c2ccc(Cl)cc2)=C(CN2CCN(c3ccc(C(=O)NS(=O)(=O)c4ccc(N[C@H](CCN5CCOCC5)CSc5ccccc5)c(S(=O)(=O)C(F)(F)F)c4)cc3)CC2)C1 [Navitoclax] (partner 0.5 µM) = 0.769
• O=C(O)CCCCC(CCSCc1ccccc1)SCc1ccccc1 (centres undefined) [CPI-613] + Nc1ncn([C@H]2C[C@H](O)[C@@H](CO)O2)c(=O)n1 [Decitabine] (partner 2 µM) = 0.277
• O=C(O)CCCCC(CCSCc1ccccc1)SCc1ccccc1 (centres undefined) [CPI-613] + O=C(c1cc(Cc2n[nH]c(=O)c3ccccc23)ccc1F)N1CCN(C(=O)C2CC2)CC1 [Olaparib] (partner 8 µM) = 0.288

----------
Test system: NCI-H661
TEST_PROTOCOL: relative viability (nuclei count vs DMSO), 5 days (fraction); higher = more cells survive
ASSAY_SETUP: first compound 0.02 µM
relative viability values, listed per item
MEASUREMENT_KIND: relative viability

- CC(=O)O[C@@]12CO[C@@H]1C[C@H](O)[C@@]1(C)C(=O)[C@H](O)C3=C(C)[C@@H](OC(=O)[C@H](O)[C@@H](NC(=O)OC(C)(C)C)c4ccccc4)C[C@@](O)([C@@H](OC(=O)c4ccccc4)[C@H]21)C3(C)C [Docetaxel] + CC(C)C[C@H](NC(=O)[C@H](Cc1ccccc1)NC(=O)c1cnccn1)B(O)O [Bortezomib] (partner 0.002 µM): 0.224
- CC(=O)O[C@@]12CO[C@@H]1C[C@H](O)[C@@]1(C)C(=O)[C@H](O)C3=C(C)[C@@H](OC(=O)[C@H](O)[C@@H](NC(=O)OC(C)(C)C)c4ccccc4)C[C@@](O)([C@@H](OC(=O)c4ccccc4)[C@H]21)C3(C)C [Docetaxel] + CS(=O)(=O)CCNCc1ccc(-c2ccc3ncnc(Nc4ccc(OCc5cccc(F)c5)c(Cl)c4)c3c2)o1 [Lapatinib] (partner 2 µM): 0.245
- CC(=O)O[C@@]12CO[C@@H]1C[C@H](O)[C@@]1(C)C(=O)[C@H](O)C3=C(C)[C@@H](OC(=O)[C@H](O)[C@@H](NC(=O)OC(C)(C)C)c4ccccc4)C[C@@](O)([C@@H](OC(=O)c4ccccc4)[C@H]21)C3(C)C [Docetaxel] + COc1cccc2cc(-c3nc([C@H]4CC[C@H](C(=O)O)CC4)n4ncnc(N)c34)[nH]c12 [OSI-027] (partner 0.5 µM): 0.307
- CC(=O)O[C@@]12CO[C@@H]1C[C@H](O)[C@@]1(C)C(=O)[C@H](O)C3=C(C)[C@@H](OC(=O)[C@H](O)[C@@H](NC(=O)OC(C)(C)C)c4ccccc4)C[C@@](O)([C@@H](OC(=O)c4ccccc4)[C@H]21)C3(C)C [Docetaxel] + Nc1nc2[nH]cc(CCc3ccc(C(=O)N[C@@H](CCC(=O)O)C(=O)O)cc3)c2c(=O)[nH]1 [Pemetrexed] (partner 0.2 µM): 0.366
- CC(=O)O[C@@]12CO[C@@H]1C[C@H](O)[C@@]1(C)C(=O)[C@H](O)C3=C(C)[C@@H](OC(=O)[C@H](O)[C@@H](NC(=O)OC(C)(C)C)c4ccccc4)C[C@@](O)([C@@H](OC(=O)c4ccccc4)[C@H]21)C3(C)C [Docetaxel] + Cc1nc(Nc2ncc(C(=O)Nc3c(C)cccc3Cl)s2)cc(N2CCN(CCO)CC2)n1 [Dasatinib] (partner 0.075 µM): 0.284
- CC(=O)O[C@@]12CO[C@@H]1C[C@H](O)[C@@]1(C)C(=O)[C@H](O)C3=C(C)[C@@H](OC(=O)[C@H](O)[C@@H](NC(=O)OC(C)(C)C)c4ccccc4)C[C@@](O)([C@@H](OC(=O)c4ccccc4)[C@H]21)C3(C)C [Docetaxel] + CS(=O)(=O)N1CCN(Cc2cc3nc(-c4cccc5[nH]ncc45)nc(N4CCOCC4)c3s2)CC1 [Pictilisib] (partner 1 µM): 0.278
